inhibition at 1 µM listing for selected molecules.
Target: AMPK A1/B1/G1 (Homo sapiens, UniProt Q13131)
Construct: purchased Life Technologies PV 4672
Sequence (Q13131 whole entry): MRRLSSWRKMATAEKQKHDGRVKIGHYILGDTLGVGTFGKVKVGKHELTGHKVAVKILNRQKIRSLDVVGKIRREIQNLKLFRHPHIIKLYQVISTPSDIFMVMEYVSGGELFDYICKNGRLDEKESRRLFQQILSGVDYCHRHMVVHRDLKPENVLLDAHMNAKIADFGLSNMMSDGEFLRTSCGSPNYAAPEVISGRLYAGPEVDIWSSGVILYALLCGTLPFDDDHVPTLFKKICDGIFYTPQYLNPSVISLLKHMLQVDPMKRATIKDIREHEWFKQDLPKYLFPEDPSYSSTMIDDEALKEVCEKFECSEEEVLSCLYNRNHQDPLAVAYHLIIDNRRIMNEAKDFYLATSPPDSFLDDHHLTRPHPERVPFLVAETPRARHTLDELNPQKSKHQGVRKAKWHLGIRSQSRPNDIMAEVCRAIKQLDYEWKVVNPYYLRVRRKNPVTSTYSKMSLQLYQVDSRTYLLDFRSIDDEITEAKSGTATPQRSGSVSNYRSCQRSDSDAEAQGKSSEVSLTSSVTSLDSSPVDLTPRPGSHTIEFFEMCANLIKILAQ
Sequence (Q9Y478 whole entry partner): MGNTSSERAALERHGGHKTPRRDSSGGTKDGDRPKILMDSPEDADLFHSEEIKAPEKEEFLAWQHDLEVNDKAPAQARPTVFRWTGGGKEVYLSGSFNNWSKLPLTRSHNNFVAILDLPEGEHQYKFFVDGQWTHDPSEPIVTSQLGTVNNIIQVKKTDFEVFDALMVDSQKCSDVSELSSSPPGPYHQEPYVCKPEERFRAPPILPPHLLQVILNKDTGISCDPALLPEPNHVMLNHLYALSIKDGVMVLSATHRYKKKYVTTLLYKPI
Sequence (P54619 whole entry partner): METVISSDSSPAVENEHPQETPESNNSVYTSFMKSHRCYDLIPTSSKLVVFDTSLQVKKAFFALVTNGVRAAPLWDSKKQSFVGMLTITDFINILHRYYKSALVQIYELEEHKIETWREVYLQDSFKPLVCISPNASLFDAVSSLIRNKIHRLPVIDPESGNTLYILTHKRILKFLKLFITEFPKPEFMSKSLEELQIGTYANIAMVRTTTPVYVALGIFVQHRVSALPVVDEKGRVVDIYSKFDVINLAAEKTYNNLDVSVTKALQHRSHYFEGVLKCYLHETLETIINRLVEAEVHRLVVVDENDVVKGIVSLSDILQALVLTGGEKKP
Test: Z'-LYTE kinase selectivity assay AMPK A1/B1/G1
Type: biochemical
Conditions: read-out: AMPK A1B1G1 % inhibition
From the text: In order to compare the kinase selectivity of compounds (I) according to the invention with known prior art compounds the commercially provided SelectScreen® Kinase Profiling Service (Z′-LYTE®) was used (Life Technologies GmbH, Darmstadt, Germany) to investigate the ability of the compounds to inhibit a number of different, representatively selected human kinases. Further details regarding this service are available on the Life Technologies website at […]
Parameter measured: inhibition at 1 µM (%)

INSERT INTO assay_data (molecule, measured) VALUES
  ('C[C@@H]1Cc2nn(C)c(-c3ccccc3)c2-c2nc(Nc3ccn(CCN4CCN(CC(C)(C)O)CC4)n3)ncc21', 43),
  ('CC(O)CN1CCN(CCn2ccc(Nc3ncc4c(n3)-c3c(nn(C)c3-c3ccccc3)C[C@H]4C)n2)CC1 (stereo partly shown)', 39),
  ('C[C@@H]1Cc2nn(C)c(-c3ccccc3)c2-c2nc(Nc3ccn(CCN4CCN(CC5CCCO5)CC4)n3)ncc21 (stereo partly shown)', 35),
  ('COCCN1CCN(CCn2ccc(Nc3ncc4c(n3)-c3c(nn(C)c3-c3ccccc3)C[C@H]4C)n2)CC1', 28),
  ('C[C@@H]1Cc2nn(C)c(-c3ccccc3)c2-c2nc(Nc3ccn(CCN4CCN(C)CC4)n3)ncc21', 36),
  ('C[C@@H]1Cc2nn(C)c(-c3ccccc3)c2-c2nc(Nc3ccn(CCN4CCOCC4)n3)ncc21', 34),
  ('C[C@@H]1Cc2nn(C)c(-c3ccccc3)c2-c2nc(Nc3ccn(CCN4CCN(CC(=O)OC5CCOCC5)CC4)n3)ncc21', 29);

The measured values listed here are drawn from patent US10414769B2.
